Measurement Name: logP
Give bare numbers.

// solved cases for logP follow
C/C=C(/C)C(=O)O[C@H]1C[C@@](C)(O)C(=O)[C@@H](OC(=O)/C(C)=C\C)[C@@]2(C)CC[C@@](O)(C(C)C)[C@@H]12; 3.29
C/C=C(/C)C(=O)O[C@H]1[C@@H](O)c2c(ccc3ccc(=O)oc23)OC1(C)C; 3.56
C/C=C(\C)C(=O)OC1c2c(ccc3ccc(=O)oc23)OC(C)(C)[C@@H]1OC(=O)/C(C)=C/C (stereo not given in full); 4.41
COc1c2ccoc2c(OCC=C(C)C)c2oc(=O)ccc12; 3.86
COc1ccc2c(C)cc(=O)oc2c1; 3.16
C/C=C(/C)C(=O)O[C@@H]1[C@H](OC(C)=O)c2c(ccc3ccc(=O)oc23)OC1(C)C; 3.75

# per-item lookup of logP; items listed below
1. COc1ccc2ccc(=O)oc2c1CC1OC1(C)C (stereo not given)
2. O=c1cc(O)c2ccccc2o1
3. CC(C)=CCOc1ccc2ccc(=O)oc2c1
4. COc1cc2ccc(=O)oc2cc1OC

Reply:
3.03
1.42
3.91
2.45
